src = paper PMC10227063

# Substrate: O=P(O)(O)O
# Protocol Details: cells, lysate or membranes
# Cond: co-substrate Ca2+; outward H+ gradient by NADH; room temperature; 5x more vesicles than WT; labelled compound

Protein | Km [mM]
YfkE (Bacillus subtilis subsp. subtilis str. 168; N99A) (protein) MNRIFFILVAAGVPLSVIGSLMHWPSAVLFAVYCVTIIALASYMGRATESLSIIAGPRIGGLLNATFGNAVELIISLFALKEGLTGIVLASLTGSVLGALLLVAGLSFFVGGLKYKRQEFNIHDARHNSGLLIFAIIVAFVIPEVFSVGMGNASKLNLSIGISIIMILLYVAALYFKLVTHRGVYQPNNAAQTEEEEEPEWSGKVATIVLFAATIVVAYISENLVHTFHSVAEQFGWSELFIGVIIVAIVGNAAEHASAIIMAFKNKMDIAVEIAVGSTLQIAMFVAPVLVICSIFFPTSMPLVFTLPELVAMVSAVLLMIAISNDGDSNWFEGATLLAAYVIMAIGFFLL | 12.4
YfkE (Bacillus subtilis subsp. subtilis str. 168; H256A) (protein) MNRIFFILVAAGVPLSVIGSLMHWPSAVLFAVYCVTIIALASYMGRATESLSIIAGPRIGGLLNATFGNAVELIISLFALKEGLTGIVLASLTGSVLGNLLLVAGLSFFVGGLKYKRQEFNIHDARHNSGLLIFAIIVAFVIPEVFSVGMGNASKLNLSIGISIIMILLYVAALYFKLVTHRGVYQPNNAAQTEEEEEPEWSGKVATIVLFAATIVVAYISENLVHTFHSVAEQFGWSELFIGVIIVAIVGNAAEAASAIIMAFKNKMDIAVEIAVGSTLQIAMFVAPVLVICSIFFPTSMPLVFTLPELVAMVSAVLLMIAISNDGDSNWFEGATLLAAYVIMAIGFFLL | 34.2
YfkE (Bacillus subtilis subsp. subtilis str. 168; N252A) (protein) MNRIFFILVAAGVPLSVIGSLMHWPSAVLFAVYCVTIIALASYMGRATESLSIIAGPRIGGLLNATFGNAVELIISLFALKEGLTGIVLASLTGSVLGNLLLVAGLSFFVGGLKYKRQEFNIHDARHNSGLLIFAIIVAFVIPEVFSVGMGNASKLNLSIGISIIMILLYVAALYFKLVTHRGVYQPNNAAQTEEEEEPEWSGKVATIVLFAATIVVAYISENLVHTFHSVAEQFGWSELFIGVIIVAIVGAAAEHASAIIMAFKNKMDIAVEIAVGSTLQIAMFVAPVLVICSIFFPTSMPLVFTLPELVAMVSAVLLMIAISNDGDSNWFEGATLLAAYVIMAIGFFLL | 8.2
YfkE (Bacillus subtilis subsp. subtilis str. 168; Q281A) (protein) MNRIFFILVAAGVPLSVIGSLMHWPSAVLFAVYCVTIIALASYMGRATESLSIIAGPRIGGLLNATFGNAVELIISLFALKEGLTGIVLASLTGSVLGNLLLVAGLSFFVGGLKYKRQEFNIHDARHNSGLLIFAIIVAFVIPEVFSVGMGNASKLNLSIGISIIMILLYVAALYFKLVTHRGVYQPNNAAQTEEEEEPEWSGKVATIVLFAATIVVAYISENLVHTFHSVAEQFGWSELFIGVIIVAIVGNAAEHASAIIMAFKNKMDIAVEIAVGSTLAIAMFVAPVLVICSIFFPTSMPLVFTLPELVAMVSAVLLMIAISNDGDSNWFEGATLLAAYVIMAIGFFLL | 29.9
